Target: T1, mouse SEMA4D, full length, on CHO-K1 cells (CHO-K1 mSEMA4D) (mouse, UniProt O09126 24-861)
T1 construct: whole, on cells; also called murine SEMA4D recombinant cells
T1 sequence (looked up): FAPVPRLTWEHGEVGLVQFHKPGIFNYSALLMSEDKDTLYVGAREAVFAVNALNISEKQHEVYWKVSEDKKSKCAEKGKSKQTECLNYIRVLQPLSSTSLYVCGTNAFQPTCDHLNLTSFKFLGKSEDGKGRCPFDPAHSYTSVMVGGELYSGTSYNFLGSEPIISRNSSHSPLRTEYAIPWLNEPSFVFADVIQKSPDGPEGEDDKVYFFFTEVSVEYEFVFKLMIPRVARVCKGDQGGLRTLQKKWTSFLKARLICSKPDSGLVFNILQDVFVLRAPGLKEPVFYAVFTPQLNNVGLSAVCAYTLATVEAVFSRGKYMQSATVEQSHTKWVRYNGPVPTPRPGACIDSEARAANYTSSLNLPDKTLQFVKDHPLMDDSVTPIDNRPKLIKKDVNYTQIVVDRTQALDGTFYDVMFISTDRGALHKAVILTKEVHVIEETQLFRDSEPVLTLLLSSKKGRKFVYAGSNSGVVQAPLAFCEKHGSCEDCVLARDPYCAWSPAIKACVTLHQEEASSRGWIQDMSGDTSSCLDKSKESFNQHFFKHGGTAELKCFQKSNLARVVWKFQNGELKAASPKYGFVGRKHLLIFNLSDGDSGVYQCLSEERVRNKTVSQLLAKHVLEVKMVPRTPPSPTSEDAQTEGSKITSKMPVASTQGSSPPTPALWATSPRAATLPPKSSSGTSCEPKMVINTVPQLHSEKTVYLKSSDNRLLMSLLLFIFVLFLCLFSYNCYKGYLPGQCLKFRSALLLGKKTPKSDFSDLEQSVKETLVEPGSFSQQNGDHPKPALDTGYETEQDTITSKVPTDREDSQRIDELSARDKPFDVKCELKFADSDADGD
Test: FACS, CHO-K1 mSEMA4D cells; Ab 0.00427 nM
Reported MFI values follow for various binders

>  <Binder>
42B7G2 (antibody, V domains shown, Mouse monoclonal antibody purified from hybridoma supernatant on protein A) VH: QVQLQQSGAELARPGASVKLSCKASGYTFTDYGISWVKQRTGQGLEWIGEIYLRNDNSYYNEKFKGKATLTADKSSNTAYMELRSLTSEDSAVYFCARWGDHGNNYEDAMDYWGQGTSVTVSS VL: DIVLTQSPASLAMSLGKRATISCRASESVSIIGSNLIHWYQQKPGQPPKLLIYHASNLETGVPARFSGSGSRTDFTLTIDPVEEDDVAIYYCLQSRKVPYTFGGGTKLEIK

>  <MFI>
30.3

$$$$
>  <Binder>
31G10C5 (antibody, V domains shown, Mouse monoclonal antibody purified from hybridoma supernatant on protein A) VH: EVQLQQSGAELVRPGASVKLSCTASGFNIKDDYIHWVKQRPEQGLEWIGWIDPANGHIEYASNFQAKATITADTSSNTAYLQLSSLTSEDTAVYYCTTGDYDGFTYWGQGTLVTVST VL: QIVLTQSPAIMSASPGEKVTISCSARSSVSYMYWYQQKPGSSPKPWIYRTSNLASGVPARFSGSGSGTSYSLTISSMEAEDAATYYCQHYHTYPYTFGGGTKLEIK

>  <MFI>
29.8

$$$$
>  <Binder>
37F11F9 (antibody, V domains shown, Mouse monoclonal antibody purified from hybridoma supernatant on protein A) VH: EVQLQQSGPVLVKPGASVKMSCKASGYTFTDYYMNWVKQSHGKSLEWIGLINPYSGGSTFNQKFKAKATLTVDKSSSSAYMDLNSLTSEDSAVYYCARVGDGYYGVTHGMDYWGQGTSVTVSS VL: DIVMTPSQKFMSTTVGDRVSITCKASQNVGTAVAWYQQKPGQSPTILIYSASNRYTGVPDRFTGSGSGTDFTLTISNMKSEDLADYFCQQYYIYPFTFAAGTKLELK

>  <MFI>
30.1

$$$$
>  <Binder>
37C4F7 (antibody, V domains shown, Mouse monoclonal antibody purified from hybridoma supernatant on protein A) VH: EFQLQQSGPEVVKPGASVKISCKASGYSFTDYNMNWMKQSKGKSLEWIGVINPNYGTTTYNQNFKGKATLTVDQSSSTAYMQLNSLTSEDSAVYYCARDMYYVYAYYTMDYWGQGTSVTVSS VL: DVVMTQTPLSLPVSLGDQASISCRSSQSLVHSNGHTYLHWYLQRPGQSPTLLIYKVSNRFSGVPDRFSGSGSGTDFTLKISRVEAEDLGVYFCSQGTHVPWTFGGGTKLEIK

>  <MFI>
30.5

$$$$
